FYI, the data here is from paper PMC3191909.

study-target: AChBP (Ac) (Aplysia californica)
test-summary: [3H]epibatidine radioligand competition SPA, Ac AChBP
Type: binding
property-measured: Kd (nM)
Please reply with the bare figure in nM and do not write the unit itself.

Briefly, Kd measured for c1ccc2c(CN3CCN(Cc4c[nH]c5ccccc45)CC3)c[nH]c2c1 : 1150
